Listed here: items and their measured phosphorylation enrichment.
# Test system: AncSZ;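 note: 11-residue human phosphosite peptides and single-mutation variants displayed on the E. coli surface, counted by deep sequencing, each peptide's frequency after selection divided by its frequency in the unselected input library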;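 note: frequency after pTyr selection over input frequency; kinase dosed for 20-30% of maximal phosphorylation in three min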
# PROTOCOL NOTES: phosphorylation enrichment, bacterial display (enrichment ratio); higher = better substrate or ligand; peptides without Tyr show the background
# answer = number (no unit)

Before answering, review these 3 worked examples.
Given item CTTIHYHYMCN [TP53_Y234_N235H] , the value recorded as its phosphorylation enrichment is 0.964

Given item GVYSRHFTTYD [CLCA1_Y661_Y661H] , the value recorded as its phosphorylation enrichment is 0.823

Given item DTLLEYLENPK [CYCS_Y68_M66L] , the value recorded as its phosphorylation enrichment is 1.45

Others:
Given item HICTAYKLVLA [DHCR24_Y190_E191K] , the value recorded as its phosphorylation enrichment is 1.88

Given item LRYEVYGGENE [STOX1_Y610] , the value recorded as its phosphorylation enrichment is 1.33

Given item KLRMESLSLMH [NCKIPSD_Y660_Y660S] , the value recorded as its phosphorylation enrichment is 0.658

Given item ADRNHYRRFRR [YBX1_Y145_P149R_YF] , the value recorded as its phosphorylation enrichment is 0.564

Given item EGDGVYTLNNE [HP_Y125] , the value recorded as its phosphorylation enrichment is 1.26

Given item GGFTWYCDGKK [PROS1_Y266_C265W_YF] , the value recorded as its phosphorylation enrichment is 1.08

Given item KPIETYFSKNY [PLP1_Y50_L46P] , the value recorded as its phosphorylation enrichment is 0.595
